TARGET: Amyloid-beta precursor protein (Homo sapiens, UniProt P05067)
Sequence (P05067 whole entry): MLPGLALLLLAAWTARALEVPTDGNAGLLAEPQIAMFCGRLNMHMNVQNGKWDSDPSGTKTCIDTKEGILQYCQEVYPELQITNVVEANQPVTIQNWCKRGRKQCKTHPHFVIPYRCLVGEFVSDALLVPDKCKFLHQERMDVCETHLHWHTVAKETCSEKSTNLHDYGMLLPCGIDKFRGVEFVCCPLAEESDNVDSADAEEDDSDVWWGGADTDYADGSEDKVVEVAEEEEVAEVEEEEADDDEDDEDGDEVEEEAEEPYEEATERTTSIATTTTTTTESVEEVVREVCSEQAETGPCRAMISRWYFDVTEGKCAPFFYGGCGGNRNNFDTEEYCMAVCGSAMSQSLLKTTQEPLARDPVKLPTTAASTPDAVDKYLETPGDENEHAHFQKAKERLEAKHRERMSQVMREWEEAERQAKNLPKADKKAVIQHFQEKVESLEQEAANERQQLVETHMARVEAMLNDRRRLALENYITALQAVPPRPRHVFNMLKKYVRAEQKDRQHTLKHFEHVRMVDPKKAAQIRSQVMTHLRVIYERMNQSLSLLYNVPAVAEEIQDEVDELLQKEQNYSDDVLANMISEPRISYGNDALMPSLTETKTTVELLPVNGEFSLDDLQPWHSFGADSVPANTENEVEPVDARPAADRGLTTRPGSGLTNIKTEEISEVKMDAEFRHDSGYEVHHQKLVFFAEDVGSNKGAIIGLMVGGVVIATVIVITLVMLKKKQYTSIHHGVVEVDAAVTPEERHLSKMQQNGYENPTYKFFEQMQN
TEST_NAME: Binding affinity to amyloid beta (1 to 42) (unknown origin) oligomer
MEASURED_ENDPOINT: pKd
// field semantics: pKd = negative decimal log of concentration (mol/L)

In [3]: df
Out[3]:
                                chem_smiles                                    target  recorded_result
0  CCCCN(CCCC)c1ccc2cc(/C=C/c3cc[n+](CCO)c4ccccc34)ccc2c1  Amyloid-beta precursor protein (Homo sapiens, UniProt P05067)             3.31
1  CCCCN(CCCC)c1ccc2cc(/C=C/c3cc[n+](C)c4ccccc34)ccc2c1  Amyloid-beta precursor protein (Homo sapiens, UniProt P05067)             3.89

Next molecule, pKd to be filled in.
Entry under review: CCCCN(CCCC)c1ccc2cc(/C=C/c3c[n+](C)cc4ccccc34)ccc2c1 . Reported pKd? 4.68

Cited source for all entries: ChEMBL document CHEMBL5137055
